Tested on: Human cytomegalovirus (HCMV)
testProtocol: Anti-HCMV plaque reduction assay in MRC5 cell monolayers
Type: cell-based
conditionNotes: Human betaherpesvirus 5, 50% inhibitory concentration, MRC5 cells (human embryonic lung)
valueType: pIC50
Value format note: pIC50 is -log10 of concentration (mol/L); just state the number.

Exercise: # get_value(readout='pIC50', item= OC[C@@H]1C[C@H](n2c(Br)nc3cc(Cl)c(Cl)cc32)[C@@H](O)[C@H]1O (relative stereo) )
Solution: 5.72

* * *

Entries and their pIC50 values follow.
Tested on: HBV
testProtocol: Anti-HBV assay: HBV DNA in supernatants of HBV-producing cells (HepG2 2.2.15, P5A), immunoaffinity capture, PCR and hybrid-capture detection
Format: cell-based, hepatitis B virus (HBV)
conditionNotes: approximate IC50; 50 percent decrease in HBV DNA; HepG2 2.2.15, P5A cell line; two values per compound; ganciclovir (control): average of 10 values
Value format note: pIC50 is -log10 of concentration (mol/L); just state the number.

Guide cases for pIC50, answers given:
INSERT INTO measurements (compoundstring, recordedmeasurement) VALUES
  ('CC(C)(C)Nc1nc2cc(Cl)c(Cl)cc2n1[C@H]1C[C@@H](CO)[C@H](O)[C@@H]1O', 5.85),
  ('OC[C@@H]1C[C@H](n2c(NC3CC3)nc3cc(Cl)c(Cl)cc32)[C@@H](O)[C@H]1O', 6.10);

Exercise: # get_value(readout='pIC50', item= CC(C)Nc1nc2cc(Cl)c(Cl)cc2n1[C@H]1C[C@@H](CO)[C@H](O)[C@@H]1O )
Solution: 6.30
